Listing of recorded autophagy induction by entry.
Test system: U2OS
Assay: Here: values are normalized to the negative (DMSO; defined as 0% autophagy induction) and positive (250nM Torin1; mTOR inhibitor; defined as maximal inducer of autophagy = 100%) control compounds and represented as % of autophagy induction. […] The impact of autophagy induction on cells is complex and depends on the affected target. As such, the magnitude of a phenotype may not be equally mirrored in the %-value of autophagy induction and vice versa. The dynamics of the induction may indicate the mode of activation: e.g. activation via phosphorylation or a signaling cascade may occur fast, while activation via transcription factors may take considerably longer. […] Of note, treatment concentrations may be sub-optimal for specific compounds, leading to false negative annotations.
Type: functional, Homo sapiens
Conditions: Compound Concentration 0.5 uM, Timepoint 60 hours, Culturing Media DMEM, 1 % Penicillin/Streptomycin, 10% Fetal bovin serum Add-On: No, Screening Media Control DMEM, Screening Media Samples DMEM
Answer format: numeric, % implied, no suffix.

| COMPOUND | QUANTITY_UNIT | autophagy induction |
| --- | --- | --- |
| COC1CCN(c2cccc(-c3cc(NC(C)=O)nc(-n4nc(C)cc4C)n3)n2)CC1 | % | 23.4921 |
| Cc1nnn(-c2ccc(-c3ccc(C4(C(=O)O)CC4)cc3)cc2)c1NC(=O)O[C@H](C)c1ccccc1 | % | -5.696 |
| O=C(O)C1CN(Cc2ccc(OCc3ccc(Cl)c(Cl)c3)cc2)C1 | % | -6.096 |
| COc1ccccc1CN[C@H]1C2CCN(CC2)[C@H]1C(c1ccccc1)c1ccccc1 | % | -4.4745 |
| COc1ccc(/C=C/CCCCOc2ccc(C(=O)c3cccc(C(=O)O)c3)cc2CCC(=O)O)cc1 | % | -4.291 |

Annotate the compound CN1CCCC(n2nc(Cc3ccc(Cl)cc3)c3ccccc3c2=O)CC1.Cl (centres undefined) [AZELASTINE HYDROCHLORIDE] with its measured autophagy induction.
4.08

Annotate the compound C[C@H](Cc1cc2c(c(C(N)=O)c1)N(CCCO)CC2)NCCOc1ccccc1OCC(F)(F)F with its measured autophagy induction.
-13.2389

Annotate the compound CCCNS(=O)(=O)Nc1ncnc(OCCOc2ncc(Br)cn2)c1-c1ccc(Br)cc1 with its measured autophagy induction.
-9.912

Annotate the compound Cc1cc(C)cc(C(=O)N(C)[C@H](Cc2ccc(-c3ccccc3)cc2)C(=O)N[C@@H](Cc2c[nH]c3ccccc23)C(=O)O)c1 with its measured autophagy induction.
4.398

Annotate the compound CC(C)(N)C(=O)N[C@H](COCc1ccccc1)C(=O)N1CCC2(CC1)CN(S(C)(=O)=O)c1ccccc12.CS(=O)(=O)O [IBUTAMOREN MESYLATE] with its measured autophagy induction.
0.1138

* * *

System: U2OS
Assay: Here: values are normalized to the negative (DMSO; defined as 0% autophagy induction) and positive (250nM Torin1; mTOR inhibitor; defined as maximal inducer of autophagy = 100%) control compounds and represented as % of autophagy induction. […] The impact of autophagy induction on cells is complex and depends on the affected target. As such, the magnitude of a phenotype may not be equally mirrored in the %-value of autophagy induction and vice versa. The dynamics of the induction may indicate the mode of activation: e.g. activation via phosphorylation or a signaling cascade may occur fast, while activation via transcription factors may take considerably longer. […] Of note, treatment concentrations may be sub-optimal for specific compounds, leading to false negative annotations.
Type: functional, Homo sapiens
Details: Compound Concentration 2 uM, Timepoint 36 hours, Culturing Media DMEM, 1 % Penicillin/Streptomycin, 10% Fetal bovin serum Add-On: No, Screening Media Control DMEM, Screening Media Samples DMEM
Listing of recorded autophagy induction by entry.
Answer shape: numeric part, then the unit.

// solved cases for autophagy induction follow
| COMPOUND | autophagy induction |
| --- | --- |
| O=C(O)C1CN(Cc2ccc(OCc3ccc(Cl)c(Cl)c3)cc2)C1 | 3.003% |
| FC(F)(F)c1cccc(-c2noc(-c3cc(-c4ccccc4)c(C(F)(F)F)s3)n2)c1 | -8.601% |

Now examine the next entry.
Annotate the compound CCc1cc(C(C)=O)c(O)cc1OCCCCCC(C)(C)c1nn[nH]n1 [LY-255283] with its measured autophagy induction.
3.296%
